- study-system: truncated Polθ protein (Polθ-Hel containing the helicase domain (67-894)) (Homo sapiens (Human), UniProt O75417)
- Sequence (O75417 67-894): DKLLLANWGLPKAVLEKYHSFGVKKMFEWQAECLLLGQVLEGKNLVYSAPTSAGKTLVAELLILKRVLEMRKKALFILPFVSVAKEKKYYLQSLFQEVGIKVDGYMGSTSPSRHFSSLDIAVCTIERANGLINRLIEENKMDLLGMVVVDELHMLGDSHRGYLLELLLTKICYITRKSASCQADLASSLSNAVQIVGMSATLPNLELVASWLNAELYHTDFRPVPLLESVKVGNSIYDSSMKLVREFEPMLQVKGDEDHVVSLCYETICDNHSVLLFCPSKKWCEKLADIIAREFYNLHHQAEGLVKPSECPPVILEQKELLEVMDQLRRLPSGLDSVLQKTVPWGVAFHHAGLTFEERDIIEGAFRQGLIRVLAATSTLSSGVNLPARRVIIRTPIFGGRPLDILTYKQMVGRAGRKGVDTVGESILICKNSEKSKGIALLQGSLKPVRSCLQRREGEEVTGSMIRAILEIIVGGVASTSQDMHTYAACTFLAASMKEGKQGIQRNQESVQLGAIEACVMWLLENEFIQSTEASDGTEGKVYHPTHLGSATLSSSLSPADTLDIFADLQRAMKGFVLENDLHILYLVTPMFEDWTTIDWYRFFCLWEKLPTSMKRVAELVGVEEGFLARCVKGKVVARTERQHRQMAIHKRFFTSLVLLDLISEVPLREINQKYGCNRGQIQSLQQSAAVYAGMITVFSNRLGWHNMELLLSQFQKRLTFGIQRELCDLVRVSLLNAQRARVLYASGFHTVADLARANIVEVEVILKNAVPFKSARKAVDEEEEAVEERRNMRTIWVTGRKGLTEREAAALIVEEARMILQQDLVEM
- assay-details: Polθ ATPase assay (Biological Assay 1, ADP-Glo luminescence)
- Assay type: biochemical
- experimental-parameters: Table B; compounds of Experimental Part B, in vitro; read-out: Polθ ATPase assay IC50
pIC50: −log10 of the molar value.
Measured pIC50 accompanies every entry in the list below.

[
  {
    "molecule": "COc1cnc(Cl)cc1-c1cc(C)ncc1C(=O)Nc1nc2cnc(OCC(C)(C)O)nc2s1 [Example 133]",
    "result": "> 7.00"
  },
  {
    "molecule": "COc1cnc(Cl)cc1-c1cc(C)ncc1C(=O)Nc1nc2cc(OCCN3CCOCC3)ccc2s1 [Example 111]",
    "result": "> 7.00"
  },
  {
    "molecule": "COc1cnc(Cl)cc1-c1cc(C)ncc1C(=O)Nc1nc2cc(OCCOC(C)=O)ccc2s1 [Example 123]",
    "result": "> 7.00"
  },
  {
    "molecule": "COc1ccc2sc(NC(=O)c3cnc(C)cc3-c3cc(Cl)ncc3OC)nc2c1 [Example 106]",
    "result": "> 7.00"
  },
  {
    "molecule": "COc1cnc(Cl)cc1-c1cc(C)ncc1C(=O)Nc1nc2cc(OCc3nn[nH]n3)ccc2s1 [Example 121]",
    "result": "> 7.00"
  }
]

GET /value?item= COc1cnc(Cl)cc1-c1cc(C)ncc1C(=O)Nc1nc2c(CCC(=O)N(C)C)cccc2s1 [Example 100] &field=pIC50 returns > 7.00

GET /value?item= COc1cnc(Cl)cc1-c1cc(C)ncc1C(=O)Nc1nc2cc(OCCOC(F)(F)F)ccc2s1 [Example 115] &field=pIC50 returns 6.00 to 7.00

GET /value?item= COc1cnc(Cl)cc1-c1cc(C)ncc1C(=O)Nc1nc2c(Br)cccc2s1 [Example 99] &field=pIC50 returns > 7.00

GET /value?item= CCOc1ccc2sc(NC(=O)c3cnc(C)cc3-c3cc(Cl)ncc3OC)nc2c1 [Example 114] &field=pIC50 returns 6.00 to 7.00

GET /value?item= COc1cnc(Cl)cc1-c1cc(C)ncc1C(=O)Nc1nc2cnc(NC[C@H](C)O)nc2s1 [Example 96] &field=pIC50 returns > 7.00

GET /value?item= COc1cnc(C)cc1-c1cc(C)ncc1C(=O)Nc1nc2cnc(N3CCC(O)CC3)nc2s1 [Example 117] &field=pIC50 returns > 7.00

GET /value?item= COc1cnc(Cl)cc1-c1cc(C)ncc1C(=O)Nc1nc2cnc(N3CC(C)(OC)C3)nc2s1 [Example 97] &field=pIC50 returns > 7.00
